System: human Factor 7 mRNA
Experiment: Dose-dependent antisense inhibition of human Factor 7 in HepB3 cells, lipofectin
Type: cell-based
Conditions: 50 nM, HepB3 cells, approx. 16 hours (Table 14)
Strand notation (5' to 3'): a small letter for the sugar, then the base; units joined by * are phosphorothioate-linked, units joined directly phosphodiester-linked; [ ] holds rarer units or linkages, { } end groups; capitals alone tell only the bases. e = 2'-O-(2-methoxyethyl) (MOE); [5mC] = 5-methylcytosine; d = 2'-deoxy (DNA)
endpoint: percent inhibition of Factor 7 mRNA, relative to untreated control cells

Examples with answers:
substance="422215 (antisense eG*eT*eT*d[5mC]*dT*dG*d[5mC]*dA*dG*dG*dA*dG*d[5mC]*dG*dG*d[5mC]*d[5mC]*eT*eA*eA) [compound 422215]" assay_result=84%
substance="407939 (antisense eT*eG*e[5mC]*eA*eG*d[5mC]*d[5mC]*d[5mC]*dG*dG*d[5mC]*dA*d[5mC]*d[5mC]*d[5mC]*eA*eG*e[5mC]*eG*eA) [compound 407939]" assay_result=80%

What measured percent inhibition of Factor 7 mRNA, relative to untreated control cells goes with 422086 (antisense eT*eG*e[5mC]*eA*eT*dG*dG*dT*dG*dA*dT*dG*d[5mC]*dT*dT*e[5mC]*eT*eG*eA*eA) [compound 422086] ?
83%

---

System: human Factor 7 mRNA
Assay: Antisense inhibition of human Factor 7 mRNA in HepB3 cells, 50 nM antisense oligonucleotide, lipofectin
Assay type: cell-based
Settings: lipofectin, 50 nM antisense oligonucleotide, approximately 24 hours, Factor 7 mRNA by real-time RT-PCR (RTS 2927), relative to untreated control
Experimental: Antisense oligonucleotides targeted to a Factor 7 nucleic acid were tested for their effects on Factor 7 mRNA in vitro. […] After a treatment period of approximately 24 hours, RNA was isolated from the cells and Factor 7 mRNA levels were measured by real-time RT-PCR, as described herein. Factor 7 mRNA levels were adjusted according to total RNA content as measured by RIBOGREEN®. […]
Strand notation (5' to 3'): a small letter for the sugar, then the base; units joined by * are phosphorothioate-linked, units joined directly phosphodiester-linked; [ ] holds rarer units or linkages, { } end groups; capitals alone tell only the bases. e = 2'-O-(2-methoxyethyl) (MOE); [5mC] = 5-methylcytosine; d = 2'-deoxy (DNA)
endpoint: % Inhibition (%)
Give a bare numeral; the unit % is implied.

Examples with answers:
substance="416423 (antisense eG*eT*eG*eT*eT*dT*d[5mC]*dT*d[5mC]*d[5mC]*dT*d[5mC]*d[5mC]*dT*dG*eA*eG*eG*e[5mC]*e[5mC]) [compound 416423]" assay_result=51
substance="416462 (antisense eG*eG*e[5mC]*eA*eG*dT*d[5mC]*d[5mC]*dT*dG*dG*dG*dT*d[5mC]*dA*eT*e[5mC]*eA*eG*e[5mC]) [compound 416462]" assay_result=60
substance="416544 (antisense eA*eT*e[5mC]*e[5mC]*e[5mC]*dA*dT*dT*dT*dT*d[5mC]*d[5mC]*d[5mC]*dA*dG*eG*eA*eG*e[5mC]*e[5mC]) [compound 416544]" assay_result=58
substance="416457 (antisense eG*eG*eA*eT*eG*dA*dT*dG*dA*d[5mC]*d[5mC]*dT*dG*d[5mC]*dG*e[5mC]*e[5mC]*eA*e[5mC]*e[5mC]) [compound 416457]" assay_result=48

What measured % Inhibition goes with 416428 (antisense e[5mC]*eT*eG*eG*eG*dT*dT*dA*d[5mC]*dG*dA*dA*dG*dA*d[5mC]*eT*eG*e[5mC]*eA*eG) [compound 416428] ?
11

---

Tested on: human Factor 7 mRNA
Assay: Antisense inhibition of human Factor 7 mRNA in HepB3 cells, 50 nM antisense oligonucleotide, lipofectin
Type: cell-based
Settings: Table 13 (microwalk), 50 nM, lipofectin, approximately 24 hours
Strand notation (5' to 3'): a small letter for the sugar, then the base; units joined by * are phosphorothioate-linked, units joined directly phosphodiester-linked; [ ] holds rarer units or linkages, { } end groups; capitals alone tell only the bases. e = 2'-O-(2-methoxyethyl) (MOE); [5mC] = 5-methylcytosine; d = 2'-deoxy (DNA)
endpoint: % Inhibition (%)
Give a bare numeral; the unit % is implied.

substance="422087 (antisense e[5mC]*eA*eT*eG*e[5mC]*dA*dT*dG*dG*dT*dG*dA*dT*dG*d[5mC]*eT*eT*e[5mC]*eT*eG) [compound 422087]" assay_result=83
substance="422153 (antisense e[5mC]*eA*eT*dG*d[5mC]*dA*dT*dG*dG*dT*dG*dA*dT*dG*d[5mC]*dT*dT*e[5mC]*eT*eG) [compound 422153]" assay_result=67

What measured % Inhibition goes with 422228 (antisense eT*eG*d[5mC]*dA*dT*dG*dG*dT*dG*dA*dT*dG*d[5mC]*dT*dT*e[5mC]*eT*eG*eA*eA) [compound 422228] ?
73

---

Tested on: human Factor 7 mRNA
Assay: Antisense inhibition of human Factor 7 mRNA in HepB3 cells, 50 nM antisense oligonucleotide, lipofectin
Format: cell-based
Conditions: Table 6, 50 nM, lipofectin, approximately 24 hours
Procedure: Antisense oligonucleotides targeted to a Factor 7 nucleic acid were tested for their effects on Factor 7 mRNA in vitro. […] After a treatment period of approximately 24 hours, RNA was isolated from the cells and Factor 7 mRNA levels were measured by real-time RT-PCR, as described herein. Factor 7 mRNA levels were adjusted according to total RNA content as measured by RIBOGREEN®. […]
Strand notation (5' to 3'): a small letter for the sugar, then the base; units joined by * are phosphorothioate-linked, units joined directly phosphodiester-linked; [ ] holds rarer units or linkages, { } end groups; capitals alone tell only the bases. e = 2'-O-(2-methoxyethyl) (MOE); [5mC] = 5-methylcytosine; d = 2'-deoxy (DNA)
Give Condition met when the value for % Inhibition is at least 30%. Give Condition not met when it is less.

substance="422129 (antisense eG*eT*eT*eA*e[5mC]*dT*dG*dA*dG*d[5mC]*dG*d[5mC]*dG*dG*dA*eA*eG*eA*eA*eG) [compound 422129]" discrete_label="Condition met"
substance="422120 (antisense e[5mC]*eG*e[5mC]*eG*eG*dA*dA*dG*dA*dA*dG*dG*dG*dA*d[5mC]*eG*eG*eA*eA*eG) [compound 422120]" discrete_label="Condition met"
substance="422275 (antisense eG*eT*dT*dA*d[5mC]*dT*dG*dA*dG*d[5mC]*dG*d[5mC]*dG*dG*dA*eA*eG*eA*eA*eG) [compound 422275]" discrete_label="Condition met"
substance="422124 (antisense eT*eG*eA*eG*e[5mC]*dG*d[5mC]*dG*dG*dA*dA*dG*dA*dA*dG*eG*eG*eA*e[5mC]*eG) [compound 422124]" discrete_label="Condition not met"
substance="422197 (antisense eT*eT*eA*d[5mC]*dT*dG*dA*dG*d[5mC]*dG*d[5mC]*dG*dG*dA*dA*dG*dA*eA*eG*eG) [compound 422197]" discrete_label="Condition not met"
substance="422128 (antisense eT*eT*eA*e[5mC]*eT*dG*dA*dG*d[5mC]*dG*d[5mC]*dG*dG*dA*dA*eG*eA*eA*eG*eG) [compound 422128]" discrete_label="Condition not met"
substance="422192 (antisense eG*eA*eG*d[5mC]*dG*d[5mC]*dG*dG*dA*dA*dG*dA*dA*dG*dG*dG*dA*e[5mC]*eG*eG) [compound 422192]" discrete_label="Condition not met"

Tell me whether % Inhibition is at least 30% here: 422193 (antisense eT*eG*eA*dG*d[5mC]*dG*d[5mC]*dG*dG*dA*dA*dG*dA*dA*dG*dG*dG*eA*e[5mC]*eG) [compound 422193]
Condition not met

---

Tested on: human Factor 7 mRNA
Assay: Antisense inhibition of human Factor 7 mRNA in HepB3 cells, 50 nM antisense oligonucleotide, lipofectin
Type: cell-based
Details: lipofectin, 50 nM antisense oligonucleotide, approximately 24 hours, Factor 7 mRNA by real-time RT-PCR (RTS 2927), relative to untreated control
Description: Antisense oligonucleotides targeted to a Factor 7 nucleic acid were tested for their effects on Factor 7 mRNA in vitro. […] After a treatment period of approximately 24 hours, RNA was isolated from the cells and Factor 7 mRNA levels were measured by real-time RT-PCR, as described herein. Factor 7 mRNA levels were adjusted according to total RNA content as measured by RIBOGREEN®. […]
Strand notation (5' to 3'): a small letter for the sugar, then the base; units joined by * are phosphorothioate-linked, units joined directly phosphodiester-linked; [ ] holds rarer units or linkages, { } end groups; capitals alone tell only the bases. e = 2'-O-(2-methoxyethyl) (MOE); [5mC] = 5-methylcytosine; d = 2'-deoxy (DNA)
Below is a list of entries, each paired with its recorded % Inhibition value.
State the value with its unit after it.

Examples with answers:
substance="416547 (antisense eA*eT*eG*eA*eA*dA*dT*dT*d[5mC]*dT*dA*d[5mC]*d[5mC]*dT*dA*eA*eA*eG*eA*eT) [compound 416547]" endpoint="% Inhibition" assay_result=0%
substance="416558 (antisense eT*eG*eA*e[5mC]*eA*dG*d[5mC]*dA*d[5mC]*dG*dA*dA*dG*d[5mC]*d[5mC]*e[5mC]*eA*eG*eA*eG) [compound 416558]" endpoint="% Inhibition" assay_result=19%
substance="416536 (antisense e[5mC]*eG*eG*eG*eA*dA*dG*dG*d[5mC]*d[5mC]*dT*dG*d[5mC]*d[5mC]*d[5mC]*eT*eG*e[5mC]*eA*eG) [compound 416536]" endpoint="% Inhibition" assay_result=23%
substance="416469 (antisense eG*e[5mC]*eA*eG*e[5mC]*d[5mC]*dA*d[5mC]*dT*d[5mC]*dG*dA*dT*dG*dT*eA*e[5mC]*eT*eG*eG) [compound 416469]" endpoint="% Inhibition" assay_result=55%

What measured % Inhibition goes with 416516 (antisense eG*eT*eG*eA*eG*dA*dA*dT*dA*d[5mC]*dA*dA*d[5mC]*dA*dG*eA*eT*eG*eA*eG) [compound 416516] ?
24%

What measured % Inhibition goes with 416543 (antisense eT*e[5mC]*e[5mC]*eT*eG*d[5mC]*dG*dA*dG*dT*dG*dG*dG*dA*dG*eT*eT*eG*eG*eA) [compound 416543] ?
0%

What measured % Inhibition goes with 416526 (antisense eT*eG*eT*e[5mC]*e[5mC]*dA*d[5mC]*dA*dT*dG*dA*d[5mC]*d[5mC]*d[5mC]*d[5mC]*eA*e[5mC]*eA*eG*eG) [compound 416526] ?
19%
